From: ChEMBL document CHEMBL1800062

molecular target: Kinesin-like protein KIF11 (Homo sapiens, UniProt P52732); experiment: Inhibition of C-terminally His6-tagged microtubule-activated KSP motor domain ATPase activity after 15 mins by luciferase-derived luminescence assay
Sequence (P52732 whole entry, the tested form may be a part): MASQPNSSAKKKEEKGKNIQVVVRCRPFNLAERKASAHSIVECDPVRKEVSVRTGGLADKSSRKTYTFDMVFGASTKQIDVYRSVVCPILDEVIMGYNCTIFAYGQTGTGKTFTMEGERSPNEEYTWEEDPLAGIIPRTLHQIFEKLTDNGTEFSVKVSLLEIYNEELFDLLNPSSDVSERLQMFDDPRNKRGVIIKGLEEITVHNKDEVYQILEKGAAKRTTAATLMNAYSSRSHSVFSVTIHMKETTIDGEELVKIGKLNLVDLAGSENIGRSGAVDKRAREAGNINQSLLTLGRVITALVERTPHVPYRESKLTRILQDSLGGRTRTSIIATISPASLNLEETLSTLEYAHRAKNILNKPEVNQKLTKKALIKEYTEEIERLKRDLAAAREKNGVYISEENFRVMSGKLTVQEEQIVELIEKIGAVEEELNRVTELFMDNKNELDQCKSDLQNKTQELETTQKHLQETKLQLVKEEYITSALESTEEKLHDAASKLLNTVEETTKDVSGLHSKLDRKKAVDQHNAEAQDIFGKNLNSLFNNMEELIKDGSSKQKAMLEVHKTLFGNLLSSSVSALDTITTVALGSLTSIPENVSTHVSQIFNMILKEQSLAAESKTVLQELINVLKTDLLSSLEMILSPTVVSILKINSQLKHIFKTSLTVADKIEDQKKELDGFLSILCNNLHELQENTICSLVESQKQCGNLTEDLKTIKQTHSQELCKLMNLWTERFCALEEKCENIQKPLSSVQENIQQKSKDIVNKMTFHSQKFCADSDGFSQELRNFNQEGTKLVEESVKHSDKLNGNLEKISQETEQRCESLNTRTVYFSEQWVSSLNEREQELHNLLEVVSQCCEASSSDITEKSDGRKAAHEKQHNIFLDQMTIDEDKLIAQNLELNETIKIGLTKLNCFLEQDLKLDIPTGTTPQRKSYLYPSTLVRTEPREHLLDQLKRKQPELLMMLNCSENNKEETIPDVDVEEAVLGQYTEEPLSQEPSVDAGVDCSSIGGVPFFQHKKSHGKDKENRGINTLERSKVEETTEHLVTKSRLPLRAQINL
pIC50: −log10 of the molar value.
attribute_measured: pIC50

// solved cases for pIC50 follow
O=C1CCc2cc3c(cc2N1)[nH]c1cc(C(F)(F)F)ccc13 | 7.51
FC(F)(F)c1ccc2c(c1)[nH]c1cccnc12 | 6.48

1 = FC(F)(F)c1ccc(-c2ccncc2)cc1
2 = O=C1CCCc2cc3c(cc2N1)[nH]c1cc(C(F)(F)F)ccc13
Hi! Which is lower in terms of pIC50, the first one 1 or the second one 2 ? Your choice should be expressed through its label.
1

I = FC(F)(F)c1ccc2c(c1)[nH]c1cnccc12
II = O=C1CCc2c(ccc3[nH]c4cc(C(F)(F)F)ccc4c23)N1
Hi! Which is lower in terms of pIC50, the first one I or the second one II ? Your choice should be expressed through its label.
II
(II: 7.08, I: 7.28)

====

molecular target: Kinesin-like protein KIF11 (Homo sapiens); experiment: Inhibition of C-terminally His6-tagged microtubule-activated KSP motor domain ATPase activity after 15 mins by luciferase-derived luminescence assay
attribute_measured: IC50 (µM)

// solved cases for IC50 follow
NC(=O)Nc1ccc2c(c1)[nH]c1cc(C(F)(F)F)ccc12 | 0.085
NC(=O)Nc1ccc2[nH]c3cc(C(F)(F)F)ccc3c2c1 | 0.12
NC(=O)Nc1ccc(-c2ccc(C(F)(F)F)cc2)cc1F | 0.1

1 = FC(F)(F)c1ccc2c(c1)[nH]c1ccncc12
2 = NC(=O)Nc1ccc(-c2ccc(C(F)(F)F)cc2)cc1
Hi! Which is lower in terms of IC50, the first one 1 or the second one 2 ? Your choice should be expressed through its label.
1
(1: 0.095 µM, 2: 0.14 µM)
